The measurements presented in this section are drawn from ChEMBL document CHEMBL2346630.

Reported pKi values follow for various compounds
- experimental.system: Cyclin-dependent kinase 2/cyclin A (Homo sapiens)
- protocol.text: biochemical
- Description: Inhibition of human recombinant His6 tagged CDK2/Cyclin A expressed in Sf21 insect cells after 40 mins by scintillation counting analysis
Keep it numeric: pKi is minus log10 of the concentration in mol/L.

Examples from the recorded data:
{"smiles.str": "CNc1nc(C)c(-c2nc(Nc3cccc(N4CCCNCC4)c3)ncc2F)s1", "experimental.system": "Cyclin-dependent kinase 2/cyclin A (Homo sapiens)", "pKi": 7.07}
{"smiles.str": "CNc1nc(CC(F)(F)F)c(-c2ccnc(Nc3cccc(S(N)(=O)=O)c3)n2)s1", "experimental.system": "Cyclin-dependent kinase 2/cyclin A (Homo sapiens)", "pKi": 6.65}
{"smiles.str": "CNc1nc(C2CC2)c(-c2ccnc(Nc3cccc(N4CCCNCC4)c3)n2)s1", "experimental.system": "Cyclin-dependent kinase 2/cyclin A (Homo sapiens)", "pKi": 6.49}
{"smiles.str": "CNc1nc(C2CC2)c(-c2ccnc(Nc3ccc(S(N)(=O)=O)cc3)n2)s1", "experimental.system": "Cyclin-dependent kinase 2/cyclin A (Homo sapiens)", "pKi": 7.89}

Give Cyclin-dependent kinase 2/cyclin A (Homo sapiens) pKi for CNc1ncc(-c2ccnc(Nc3cccc(S(N)(=O)=O)c3)n2)s1
8.30

====

- experimental.system: Cyclin-dependent kinase 7/ cyclin H (Homo sapiens)
- Sequence (P51946 whole entry): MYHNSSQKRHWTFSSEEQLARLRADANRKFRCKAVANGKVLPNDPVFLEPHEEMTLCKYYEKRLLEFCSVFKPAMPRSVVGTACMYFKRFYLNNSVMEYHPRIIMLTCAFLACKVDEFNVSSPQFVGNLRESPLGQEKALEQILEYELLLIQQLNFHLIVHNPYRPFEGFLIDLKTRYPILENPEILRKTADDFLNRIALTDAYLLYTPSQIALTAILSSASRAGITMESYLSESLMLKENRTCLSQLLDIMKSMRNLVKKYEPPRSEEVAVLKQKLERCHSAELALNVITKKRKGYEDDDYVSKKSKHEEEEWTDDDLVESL
- Sequence (P50613 whole entry): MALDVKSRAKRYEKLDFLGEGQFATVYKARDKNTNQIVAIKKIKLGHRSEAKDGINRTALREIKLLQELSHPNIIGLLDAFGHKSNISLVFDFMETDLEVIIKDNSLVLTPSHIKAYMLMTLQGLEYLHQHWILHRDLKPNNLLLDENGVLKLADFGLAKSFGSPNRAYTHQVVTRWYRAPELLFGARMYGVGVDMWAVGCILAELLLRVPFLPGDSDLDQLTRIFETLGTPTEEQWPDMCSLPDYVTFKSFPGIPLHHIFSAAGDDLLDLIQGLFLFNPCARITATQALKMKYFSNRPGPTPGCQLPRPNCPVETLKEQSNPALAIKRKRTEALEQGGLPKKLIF
- protocol.text: biochemical
- Description: Inhibition of human recombinant His6 tagged CDK7/CyclinH/MAT1 expressed in Sf21 insect cells after 40 mins by scintillation counting analysis
quantity.measured: pKi
Here pKi is given on a logarithmic scale as minus log10 of the concentration in mol/L.

{"smiles.str": "CNc1nc(C2CC2)c(-c2ccnc(Nc3cccc(S(N)(=O)=O)c3)n2)s1", "pKi": 6.56}
{"smiles.str": "CNc1nc(CC(F)(F)F)c(-c2ccnc(Nc3cccc(S(N)(=O)=O)c3)n2)s1", "pKi": 5.70}
{"smiles.str": "CNc1nc(C(F)(F)F)c(-c2ccnc(Nc3cccc(S(N)(=O)=O)c3)n2)s1", "pKi": 7.33}

Param item = CNc1nc(C)c(-c2nc(Nc3ccc(N4CCN(C(C)=O)CC4)cc3)ncc2C#N)s1 ; retrieve measured pKi.
6.50

What does the record list as pKi for CNc1nc(C)c(-c2ccnc(Nc3cccc(S(N)(=O)=O)c3)n2)s1 ?
5.71

pKi lookup needed for CNc1nc(C)c(-c2nc(Nc3cccc(N4CCNCC4)c3)ncc2F)s1 , thanks.
6.71

What does the record list as pKi for CNc1nc(C)c(-c2nc(Nc3cccc(N4CCN(C(C)=O)CC4)c3)ncc2C#N)s1 ?
7.04

Would you kindly share the measured pKi for CNc1nc(C)c(-c2nc(Nc3ccc(N4CCNCC4)cc3)ncc2C#N)s1 ?
7.15

Give the measured pKi of CNc1nc(CC(F)(F)F)c(-c2ccnc(Nc3cccc(O)c3)n2)s1 .
5.46

What value of pKi has been reported for the following compound? CNc1nc(CC(F)(F)F)c(-c2ccnc(Nc3ccc(O)cc3)n2)s1
5.81

Report pKi for CNc1nc(C2CC2)c(-c2ccnc(Nc3ccc(S(N)(=O)=O)cc3)n2)s1 please.
6.59

Would you mind telling me what pKi value was observed for CNc1nc(C)c(-c2nc(Nc3cccc(N4CCNCC4)c3)ncc2C#N)s1 ?
7.17

Item CNc1nc(C)c(-c2nc(Nc3cccc(N4CCN(C(C)=O)CC4)c3)ncc2F)s1 has what recorded pKi?
6.52

Requested field: pKi. Item: CCc1cnc(Nc2cccc(S(N)(=O)=O)c2)nc1-c1sc(NC)nc1C
5.89

Looking for the measured pKi of CNc1nc(C(F)(F)F)c(-c2ccnc(Nc3ccc(S(N)(=O)=O)cc3)n2)s1 , can you help?
7.19

Which measured pKi value corresponds to CNc1nc(C)c(-c2nc(Nc3cccc(N4CCCCC4)c3)ncc2C#N)s1 ?
6.54

Look at this compound and give its reported pKi. CNc1nc(C2CC2)c(-c2ccnc(Nc3cccc(N4CCCNCC4)c3)n2)s1
6.33

Which pKi reading was recorded for the compound CNc1nc(C)c(-c2nc(Nc3cccc(S(N)(=O)=O)c3)ncc2C)s1 ?
5.93
